assayed system: Lysophosphatidic acid receptor 1 (Homo sapiens, UniProt Q92633)
Sequence (Q92633 whole entry): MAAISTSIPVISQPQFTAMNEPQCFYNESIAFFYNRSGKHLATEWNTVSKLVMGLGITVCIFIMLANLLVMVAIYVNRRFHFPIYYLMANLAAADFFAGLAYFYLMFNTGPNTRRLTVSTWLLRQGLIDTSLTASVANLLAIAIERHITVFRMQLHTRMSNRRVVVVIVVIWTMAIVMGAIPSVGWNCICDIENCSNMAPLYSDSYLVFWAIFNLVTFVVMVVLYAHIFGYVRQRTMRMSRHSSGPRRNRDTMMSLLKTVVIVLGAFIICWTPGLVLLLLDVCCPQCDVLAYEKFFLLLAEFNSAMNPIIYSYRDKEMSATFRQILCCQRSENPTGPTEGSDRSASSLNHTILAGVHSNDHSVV
protocol details: Antagonist activity at human LPA1 receptor expressed in HEK293 cells assessed as Galpha13 effector recruitment incubated for 10 mins by BRET assay
Type: functional, cell-based
result type: EC50
The number alone won't do; follow it with the unit.

Task: May I ask what EC50 has been recorded for `C[C@@H](OC(=O)Nc1c(-c2ccc(NC(=O)c3cnc(C(F)(F)F)nc3)cn2)nnn1C)c1cc(F)cnc1F` ?
Output: 71 nM

====

protocol details: Oral bioavailability in Beagle dog at 5 mg/kg measured after 24 hrs by LC/MS/MS analysis
Type: ADME, organism-based, Canis lupus familiaris
recorded conditions: in vivo
result type: bioavailability (%)
Numbers only, in %.

Batch: bioavailability for all items listed.
1. C[C@@H](OC(=O)Nc1c(-c2ccc(NC(=O)c3cnc(C(F)(F)F)nc3)cn2)nnn1C)c1cc(F)cnc1F
2. C[C@@H](OC(=O)Nc1c(-c2ccc(NS(C)(=O)=O)cn2)nnn1C)c1cc(F)cnc1F

Output:
49
100

====

assayed system: Lysophosphatidic acid receptor 1 (Homo sapiens, UniProt Q92633)
protocol details: […] at LPA1 receptor in human TWNT-4 cells pre-incubated for 1 hr followed by 30 mins incubation in presence of 4% human serum albumin by MRTF-A assay
Assay type: functional, cell-based
result type: EC50 (nM)
Answers are plain numbers, in nM.

Task: GET /values?readout=EC50&item= CCCCCCCC/C=C\CCCCCCCC(=O)OC[C@@H](O)COP(=O)(O)O [LYSOPHOSPHATIDIC ACID]
Output: 306

====

protocol details: Plasma protein binding in human assessed as unbound fraction at 2 uM incubated for 24 hrs by LC-MS analysis
Assay type: ADME, cell-free
result type: fraction unbound at 24 h, 2 µM
One number for each entry.

Task: Need fraction unbound at 24 h, 2 µM of `C[C@@H](OC(=O)Nc1c(-c2ccc(NC(=O)c3cnc(C(F)(F)F)nc3)cn2)nnn1C)c1cc(F)cnc1F` , thanks.
Output: 0.14

====

For each entry below, report its Vd value.
protocol details: Volume of distribution in male Sprague-Dawley rat at 1 mg/kg, iv s measured after 24 hrs by LC/MS/MS analysis
Type: ADME, organism-based
recorded conditions: in vivo
Numbers only, in L/kg.

Task: Name the reported Vd value associated with the compound `C[C@@H](OC(=O)Nc1c(-c2ccc(NS(C)(=O)=O)cn2)nnn1C)c1cc(F)cnc1F`
Output: 1

Turning now to a further record.
Task: # query: Vd of entry `C[C@@H](OC(=O)Nc1c(-c2ccc(NC(=O)c3cnc(C(F)(F)F)nc3)cn2)nnn1C)c1cc(F)cnc1F`
Output: 0.8

====

protocol details: Dissociation constant, pKa of compound at 100 uM by capillary electrophoresis
Format: physicochemical
result type: pKa at 100 µM

Task: Tell me the measured pKa at 100 µM of `Cc1nc(-c2nnn(C)c2NC(=O)O[C@H](C)c2cccnc2Cl)ccc1NS(C)(=O)=O` , please.
Output: 7.1

====

protocol details: Apparent permeability across apical to basolateral side in cMDR1 knockout MDCK-II cells incubated upto 240 mins by RF-QToF analysis
Assay type: ADME, cell-based, Canis lupus familiaris
recorded conditions: dog
// Not fulfilled strictly below 20 ×10⁻⁶ cm/s in Papp A→B at 4 h; Fulfilled otherwise

Task: Exam item: decide whether the reported Papp A→B at 4 h for `Cc1nc(-c2nnn(C)c2NC(=O)O[C@H](C)c2ccccc2)ccc1NS(C)(=O)=O` is at least 20 ×10⁻⁶ cm/s.
Output: Fulfilled

Task: Field entry: `C[C@@H](OC(=O)Nc1c(-c2ccc(NC(=O)c3ccc(C(F)(F)F)nc3)cn2)nnn1C)c1cc(F)cnc1F`
Output: Not fulfilled

Task: # repeat for `Cc1nc(-c2nnn(C)c2NC(=O)O[C@H](C)c2cccc(F)c2)ccc1NS(C)(=O)=O`
Output: Fulfilled

New cases:
Task: Tell me whether Papp A→B at 4 h is at least 20 ×10⁻⁶ cm/s here: `CC(=O)Nc1ccc(-c2nnn(C)c2NC(=O)O[C@H](C)c2cc(F)cnc2F)nc1`
Output: Not fulfilled

Task: Entry to check: `C[C@@H](OC(=O)Nc1c(-c2ccc(NC(=O)C3CC(F)(F)C3)cn2)nnn1C)c1cc(F)cnc1F`
Output: Not fulfilled

Task: Next compound: `Cc1nc(-c2nnn(C)c2NC(=O)O[C@H](C)c2cc(F)cnc2Cl)ccc1NS(C)(=O)=O`
Output: Not fulfilled

Task: Continue with `C[C@@H](OC(=O)Nc1c(-c2ccc(NS(C)(=O)=O)cn2)nnn1C)c1cc(F)ccc1F`
Output: Not fulfilled

Task: Try the compound `Cc1nc(-c2nnn(C)c2NC(=O)O[C@H](C)c2cccnc2Cl)ccc1NS(C)(=O)=O`
Output: Not fulfilled

Task: Continue with `Cc1nc(-c2nnn(C)c2NC(=O)O[C@H](C)c2cccnc2F)ccc1NS(C)(=O)=O`
Output: Not fulfilled

Task: `Cc1nc(-c2nnn(C)c2NC(=O)O[C@H](CF)c2ccccc2)ccc1NS(C)(=O)=O` , same question.
Output: Not fulfilled

Task: And the next one, `Cn1nnc(-c2ccc(NS(C)(=O)=O)cn2)c1NC(=O)O[C@H](CF)c1ccccc1` ?
Output: Not fulfilled

Task: Let us now turn to `C[C@@H](OC(=O)Nc1c(-c2ccc(NC(=O)C3(C(F)F)CC3)cn2)nnn1C)c1cc(F)cnc1F`
Output: Fulfilled
